Test system: wheat Gibberella zeae
Experiment: microbe, parasite or virus in culture
Format: cell-based
Settings: Fusarium graminearum, read-out: Fungicidal activity, inhibition, GZ

COMPOUND_SMILES	inhibition at 50 µg/mL
COC(=O)CCCNC(=O)/C(=C/c1ccccc1)NC(=O)c1ccccc1	0%
O=C(N/C(=C\c1ccco1)C(=O)N1CCC(O)(c2ccc(Br)cc2)CC1)c1ccccc1	31%
O=C(N/C(=C\c1ccc(Cl)cc1)C(=O)N1CCC(O)(c2ccc(Br)cc2)CC1)c1ccccc1	49%
O=C(NCc1ccc(Cl)cc1)/C(=C/c1ccccc1)NC(=O)c1ccccc1	19%
O=C(NCc1ccccc1)/C(=C/c1ccccc1)NC(=O)c1ccccc1	23%
CCOC(=O)c1csc(C2CCN(C(=O)/C(=C/c3ccccc3)NC(=O)c3ccccc3)CC2)n1	11%
COC(=O)[C@H](C)NC(=O)/C(=C/c1ccccc1)NC(=O)c1ccccc1	16%
O=C(N/C(=C\c1ccccc1)C(=O)N1CCC(O)(c2ccc(Br)cc2)CC1)c1ccc(C(F)(F)F)cc1	0%
CONC(=O)/C(=C/c1ccccc1)NC(=O)c1ccccc1	0%
O=C(N/C(=C\c1ccc(C(F)(F)F)cc1)C(=O)N1CCC(O)(c2ccc(Br)cc2)CC1)c1ccccc1	7%
CNC(=O)/C(=C/c1csc(C2CCN(C(=O)OC(C)(C)C)CC2)n1)NC(=O)c1ccccc1	34%
O=C(N/C(=C\c1ccccc1)C(=O)N1CCC(O)(c2ccc(Br)cc2)CC1)c1ccco1	33%
CNC(=O)/C(=C/c1ccccc1)NC(=O)c1ccccc1	6%
O=C(N/C(=C\c1ccccc1)C(=O)N1CCC(O)(c2ccc(Br)cc2)CC1)c1ccc(Cl)cc1	71%
COc1ccc(/C=C(\NC(=O)c2ccccc2)C(=O)N2CCC(O)(c3ccc(Br)cc3)CC2)cc1	2%
O=C(N/C(=C\c1cccs1)C(=O)N1CCC(O)(c2ccc(Br)cc2)CC1)c1ccccc1	23%
Cc1ccc(/C=C(\NC(=O)c2ccccc2)C(=O)N2CCC(O)(c3ccc(Br)cc3)CC2)cc1	10%
O=C(NCc1ccc(Br)cc1)/C(=C/c1ccccc1)NC(=O)c1ccccc1	43%
Cc1nnsc1/C=C1\N=C(c2ccccc2)OC1=O	43%

* * *

Test system: Physalospora piricola
Assay: Fungicidal activity, fungi growth rate method, PP
Format: cell-based
Conditions: 50 μg/mL; read-out: Fungicidal activity, inhibition, PP
Hi, to clarify the labels: T covers inhibition at 50 µg/mL from 6% upward, F covers anything below 6%.

COMPOUND_SMILES	EXPERIMENTAL_TARGET	CATEGORY
COc1ccc(CNC(=O)/C(=C/c2ccccc2)NC(=O)c2ccccc2)cc1	Physalospora piricola	T
O=C(N/C(=C\c1ccccc1)C(=O)N1CCC(O)(c2ccc(Br)cc2)CC1)c1ccco1	Physalospora piricola	T
COC(=O)CCNC(=O)/C(=C/c1ccccc1)NC(=O)c1ccccc1	Physalospora piricola	F
O=C(N/C(=C\c1ccccc1)C(=O)N1CCC(O)(c2ccc(Br)cc2)CC1)c1cccs1	Physalospora piricola	F
O=C(N/C(=C\c1ccco1)C(=O)N1CCC(O)(c2ccc(Br)cc2)CC1)C1CCCCC1	Physalospora piricola	T
O=C(N/C(=C\c1ccccc1)C(=O)N1CCC(c2nc(CO)cs2)CC1)c1ccccc1	Physalospora piricola	F

* * *

Tested on: tobacco mosaic virus (TMV)
Assay: Anti-TMV protective activity (protection mode), live friction inoculation on tobacco seedlings
Format: in vivo
Conditions: Tobacco mosaic virus, read-out: Anti-TMV activity, Protection effect (inhibition)
READOUT_KIND: inhibition at 100 µg/mL (%)

COMPOUND	RESULT_UNITS	ENDPOINT_VALUE
O=C(N/C(=C\c1ccccc1)C(=O)N1CCC(O)(c2ccc(Br)cc2)CC1)c1cccc([N+](=O)[O-])c1	%	5
O=C(NCc1cccs1)/C(=C/c1ccccc1)NC(=O)c1ccccc1	%	0
O=C(N/C(=C\c1ccccc1)C(=O)N1CCC(O)(c2ccc(Br)cc2)CC1)c1ccc(Cl)cc1	%	50
COC(=O)CCCNC(=O)/C(=C/c1ccccc1)NC(=O)c1ccccc1	%	13
O=C(N/C(=C\c1ccccc1)C(=O)N1CCC(O)(c2ccc(Br)cc2)CC1)c1ccccc1[N+](=O)[O-]	%	23
O=C(OCc1ccc(Br)cc1)/C(=C/c1ccccc1)NC(=O)c1ccccc1	%	16
O=C(N/C(=C\c1ccccc1)C(=O)N1CCC(O)(c2ccc(Br)cc2)CC1)c1ccc(Br)cc1	%	1
CONC(=O)/C(=C/c1ccccc1)NC(=O)c1ccccc1	%	1
O=C(N/C(=C\c1ccccc1)C(=O)N1CCC(O)(c2ccc(Br)cc2)CC1)c1cccs1	%	34
Cc1nnsc1/C=C1\N=C(c2ccccc2)OC1=O	%	40
O=C(NCc1ccccc1)/C(=C/c1ccccc1)NC(=O)c1ccccc1	%	33
Cc1snnc1/C=C(\NC(=O)c1ccccc1)C(=O)O	%	17
O=C(N/C(=C\c1ccco1)C(=O)N1CCC(O)(c2ccc(Br)cc2)CC1)C1CCCCC1	%	53
O=C(NC1CC1)/C(=C/c1ccccc1)NC(=O)c1ccccc1	%	10
O=C(NC1CCCCC1)/C(=C/c1ccccc1)NC(=O)c1ccccc1	%	0
Cc1snnc1/C=C1\N=C(c2ccccc2)OC1=O	%	0
O=C(NCc1ccc(Br)cc1)/C(=C/c1ccccc1)NC(=O)C1CC1	%	41
COC(=O)[C@H](C)NC(=O)/C(=C/c1ccccc1)NC(=O)c1ccccc1	%	0
O=C(N/C(=C\c1ccccc1)C(=O)N1CCC(O)CC1)c1ccccc1	%	54
CC(C)(C)OC(=O)N1CCC(c2nc(/C=C(\NC(=O)c3ccccc3)C(=O)NCC(F)F)cs2)CC1	%	2
O=C(NCc1ccc(Cl)cc1)/C(=C/c1ccccc1)NC(=O)c1ccccc1	%	0
O=C(N/C(=C\c1ccccc1)C(=O)N1CCC(O)(c2ccc(Br)cc2)CC1)C1CC1	%	48
NC(=O)c1ncn([C@@H]2O[C@H](CO)[C@@H](O)[C@H]2O)n1 [Ribavirin, ribavirin, reference compound]	%	58
O=C(N/C(=C\c1ccc(Br)cc1)C(=O)N1CCC(O)(c2ccc(Br)cc2)CC1)c1ccccc1	%	46
O=C(NCc1ccc(C(F)(F)F)cc1)/C(=C/c1ccccc1)NC(=O)c1ccccc1	%	4
CC(C)(C)OC(=O)N1CCC(c2nc(/C=C(\NC(=O)c3ccccc3)C(=O)N3CCC(O)(c4ccc(Br)cc4)CC3)cs2)CC1	%	0
Cc1nnsc1/C=C(\NC(=O)c1ccccc1)C(=O)O	%	53
COc1ccc(CNC(=O)/C(=C/c2ccccc2)NC(=O)c2ccccc2)cc1	%	0
COC(=O)[C@H]1CCCN1C(=O)/C(=C/c1ccccc1)NC(=O)c1ccccc1	%	2
CC(C)(C)OC(=O)N1CCC(c2nc(/C=C(\NC(=O)c3ccccc3)C(=O)O)cs2)CC1	%	48
O=C(N/C(=C\c1ccccc1)C(=O)N1CCOCC1)c1ccccc1	%	38
COc1ccc(/C=C(\NC(=O)c2ccccc2)C(=O)N2CCC(O)(c3ccc(Br)cc3)CC2)cc1	%	57
O=C(O)/C(=C/c1ccccc1)NC(=O)c1ccc(C(F)(F)F)cc1	%	37
CNC(=O)/C(=C/c1ccccc1)NC(=O)c1ccccc1	%	58

* * *

As shown below, each of these compounds has a reported inhibition at 50 µg/mL value.
Tested on: Alternaria solani
Experiment: Fungicidal activity, fungi growth rate method, AS
Format: cell-based
Details: Alternaria solani; 50 μg/mL; read-out: Fungicidal activity (inhibition) against AS: Alternaria solani

COMPOUND_SMILES	EXPERIMENTAL_TARGET	RESULT_UNITS	QUALIFIER	inhibition at 50 µg/mL
O=C(NC1CC1)/C(=C/c1ccccc1)NC(=O)c1ccccc1	Alternaria solani	%	<	30
O=C(N/C(=C\c1ccccc1)C(=O)N1CCC(O)CC1)c1ccccc1	Alternaria solani	%	<	30
O=C(N/C(=C\c1ccc(Cl)cc1)C(=O)N1CCC(O)(c2ccc(Br)cc2)CC1)c1ccccc1	Alternaria solani	%	=	43
CONC(=O)/C(=C/c1csc(C2CCN(C(=O)OC(C)(C)C)CC2)n1)NC(=O)c1ccccc1	Alternaria solani	%	=	63

* * *

This section presents molecules with their documented melting point values.
READOUT_KIND: melting point

MOLECULE	ENDPOINT_VALUE
COc1ccc(CNC(=O)/C(=C/c2ccccc2)NC(=O)c2ccccc2)cc1	138 to 140 °C
O=C(NCc1ccccc1)/C(=C/c1ccccc1)NC(=O)c1ccccc1	169 to 171 °C
O=C(N/C(=C\c1ccc([N+](=O)[O-])cc1)C(=O)N1CCC(O)(c2ccc(Br)cc2)CC1)c1ccccc1	186 to 188 °C
Cc1ccc(/C=C(\NC(=O)c2ccccc2)C(=O)N2CCC(O)(c3ccc(Br)cc3)CC2)cc1	234 to 236 °C
Cc1snnc1/C=C(\NC(=O)c1ccccc1)C(=O)O	190 to 192 °C
O=C(O)/C(=C/c1ccccc1)NC(=O)C1CC1	193 to 195 °C
CC(C)(C)OC(=O)N1CCC(c2nc(/C=C(\NC(=O)c3ccccc3)C(=O)N3CCC(O)(c4ccc(Br)cc4)CC3)cs2)CC1	166 to 168 °C
O=C(NC(Cc1ccccc1)C(=O)N1CCC(O)(c2ccc(Br)cc2)CC1)C1CC1 (centres unmarked)	101 to 103 °C
CC(C)(C)OC(=O)N1CCC(c2nc(/C=C3\N=C(c4ccccc4)OC3=O)cs2)CC1	189 to 191 °C
O=C(N/C(=C\c1ccc(Cl)cc1)C(=O)N1CCC(O)(c2ccc(Br)cc2)CC1)c1ccccc1	210 to 212 °C
Cc1snnc1/C=C(\NC(=O)c1ccccc1)C(=O)N1CCC(O)(c2ccc(Br)cc2)CC1	231 to 233 °C
O=C(NC1CCCCC1)/C(=C/c1ccccc1)NC(=O)c1ccccc1	204 to 206 °C
CC(C)(C)OC(=O)N1CCC(c2nc(C(=O)NCC(=O)O)cs2)CC1	183 to 185 °C
O=C(NC(Cc1ccccc1)C(=O)N1CCC(O)(c2ccc(Br)cc2)CC1)C1CCCCC1 (centres unmarked)	200 to 202 °C
CC(C)(C)OC(=O)N1CCC(C(=O)N/C(=C\c2ccccc2)C(=O)N2CCC(O)(c3ccc(Br)cc3)CC2)CC1	145 to 147 °C
O=C(N/C(=C\c1ccccc1)C(=O)N1CCOCC1)c1ccccc1	147 to 149 °C
O=C(N/C(=C\c1ccc(Br)cc1)C(=O)N1CCC(O)(c2ccc(Br)cc2)CC1)c1ccccc1	147 to 148 °C
